Molecular target: full-length human RORγt (Homo sapiens)
Construct: expressed in transfected cells; host or cells: HEK293T, transiently transfected with pCMV-BD-ROR
Sequence (P51449 1-497 isoform P51449-2): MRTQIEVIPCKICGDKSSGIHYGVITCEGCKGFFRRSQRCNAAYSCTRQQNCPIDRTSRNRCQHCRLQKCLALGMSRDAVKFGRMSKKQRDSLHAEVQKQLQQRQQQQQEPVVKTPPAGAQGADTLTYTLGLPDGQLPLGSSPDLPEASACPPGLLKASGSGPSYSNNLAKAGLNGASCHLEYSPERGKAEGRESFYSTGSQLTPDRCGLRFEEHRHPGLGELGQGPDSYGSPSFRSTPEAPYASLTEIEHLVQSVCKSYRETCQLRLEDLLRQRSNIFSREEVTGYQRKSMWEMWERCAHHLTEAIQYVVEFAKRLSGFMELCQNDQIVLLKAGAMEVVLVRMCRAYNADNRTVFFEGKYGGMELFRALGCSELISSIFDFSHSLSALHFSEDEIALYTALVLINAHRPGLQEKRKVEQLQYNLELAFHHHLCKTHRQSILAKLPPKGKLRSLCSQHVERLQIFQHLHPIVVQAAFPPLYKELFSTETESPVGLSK
Test: RORγt (full-length human) Reporter Assay, Conditions A
Format: cell-based
Conditions: HEK293T cells, GAL4-DBD-RORγt, luciferase; read-out: RORγt (FL) Reporter Assay A, IC50
Protocol: After overnight (16 to 20 hours) incubation, media were removed and cells were lysed with 20 μL 1× Passive Lysis Buffer (Promega) for 10-15 minutes. Luminescence was measured using a BMG LUMIstar OPTIMA plate reader, after addition of 75 μL/well firefly luciferase buffer, followed by 75 μL/well Renilla luciferase buffer. […] IC50s were generated by plotting final Renilla normalized data against compound concentration and percent inhibition was calculated against DMSO control.
quantity: IC50 (nM)

P: CC(C)(Cc1nnc(-c2nc(C(=O)N3CCC(F)CC3)c(-c3cc(C(C)(C)C)cc(C(O)(C(F)(F)F)C(F)(F)F)c3)s2)o1)C(=O)O
Q: C[C@H](NS(=O)(=O)c1ccc(-c2sc(-c3cc(CC(C)(C)C(=O)O)on3)nc2C(=O)N2CCC(F)(F)CC2)c(C(F)F)c1F)C(F)(F)F
R: C[C@H]1CCCCN1C(=O)c1nc(-c2noc(CC(C)(C)C(=O)O)n2)sc1-c1ccc(C(O)(C(F)(F)F)C(F)(F)F)c(Cl)c1Cl
S: C[C@H](NS(=O)(=O)c1ccc(-c2sc(-c3nnc(C(C)(C)O)o3)nc2C(=O)N2CCC(F)(F)CC2)c(F)c1C(F)(F)F)C(F)(F)F
Q: Rank the compounds listed above in increasing order of IC50. Respond with the label ranking, as requested.
Result: R, S, P, Q
(R: 12 nM, S: 93 nM, P: 150 nM, Q: 350 nM)

A: CC1CCN(C(=O)c2nc(-c3nnc(C(N)=O)o3)sc2-c2ccc(S(=O)(=O)N[C@@H](C)C(F)(F)F)c3ccccc23)CC1
B: C[C@H](NS(=O)(=O)c1ccc(-c2sc(-c3nnc(CC(C)(C)O)o3)nc2C(=O)N2CCC(F)(F)CC2)c(OC(F)F)c1F)C(F)(F)F
Q: Parameter metric = IC50. Return the lower-valued option from A and B . Give the label of your selection.
Result: A
(A: 170 nM, B: 290 nM)
